The following compounds are listed with their measured selectivity ratio values.
test: Selectivity ratio of CC50 for MDCK cells to EC50 for Influenza A virus (A/WSN/33); assay type: toxicity; settings: dog, read-out: Ratio CC50/EC50

As a guide, the following entries are already answered.
smiles.record: C=C(CC(=O)Nc1cc(OC)ccc1F)C(=O)Nc1cc(OC)ccc1F
selectivity ratio: > 229
//
smiles.record: C=C(CC(=O)Nc1ccc(F)cc1Br)C(=O)Nc1ccc(F)cc1Br
selectivity ratio: > 42

Q. Which selectivity ratio value is on record for C=C(CC(=O)Nc1ccc(F)cc1F)C(=O)Nc1ccc(F)cc1F ?
A. 29.8

====

test: Selectivity ratio of CC50 for MDCK cells to EC50 for Influenza A virus A/TW/3446/02 (H3N2); assay type: toxicity; settings: dog, read-out: Ratio CC50/EC50
The following molecules are listed with their measured selectivity ratio values.

smiles.record: C=C(CC(=O)Nc1ccc(F)cc1F)C(=O)Nc1ccc(F)cc1F
selectivity ratio: 18

Now consider the entry below.
Q. Which selectivity ratio value is on record for C=C(CC(=O)Nc1ccc(C(F)(F)F)cc1F)C(=O)Nc1ccc(C(F)(F)F)cc1F ?
A. > 114
